meta.source: the supplement of paper PMC10567573

# ASSAY: protein stability index of a GFP-peptide fusion (GPS, HEK-293T) (PSI 1-6); higher = more stable;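 further: 24-mer peptide tiles fused after GFP, lentivirally expressed, FACS-sorted into six equal bins by GFP/DsRed ratio, decoded by Illumina sequencing, PSI is the read-weighted mean bin number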
# TEST_PARAMETERS: treatment: MLN4924 1 uM, 8 h; c terminus: a fixed tail appended
MEASURE_NAME: protein stability index
Note: the reply should be a number with no unit written.

Field: example entries. Status: answers known.
ITEM_SEQUENCE: RSVQNFRFFASSSLHHTSECTQMD [ALDH8A1]
protein stability index: 3.29
//
ITEM_SEQUENCE: SFIIYLKNIVIADFVMSLTFPFKI [P2RY14]
protein stability index: 3.22
//
ITEM_SEQUENCE: GGGNDRVRNLQSEVEGVKNIMTQN [VAMP8]
protein stability index: 4.75
//
ITEM_SEQUENCE: NHSLETCETTLFALRMATWNQILD [PTGFR]
protein stability index: 2
//
ITEM_SEQUENCE: CRGIPRGPVRPAIPPPLSSVYAWG [NEK8]
protein stability index: 2.35

protein stability index for MQAEAEAASVRMRGEAEAFAIGAR [FLOT1] ? 4.75

What protein stability index value was documented for this sequence, SILFGHENRVSTLRVSPDGTAFCS [GNB5] ? 3.02

If you can, please state the reported protein stability index value of GGWNFSTQKFTDMVATANNRQTFV [CHIT1] . 2.81

Bench note: what protein stability index did EDGEKAAREVKLLLLGAGESGKST [GNAI1] show? 5.28

Fill blank: measured protein stability index of the sequence IFALYSSLKFKSRVPQTWSKRLYG [PLD5] is ____. 2.83

Which value of protein stability index has been reported for LVVILLSIVAVGFHIFRTLEVNRL [PKD2L1] in the records? 3.12

Return reported protein stability index; argument: RKKTLVPGPPGSSRPVKGQVVTVH [FKBP8] 3.46

Request the reported protein stability index associated with KQIVSAVAHCHQSAIVLGDLKLRK [TRIB1] 2.72
